System: SN12C renal
Experiment: NCI-60 one-dose screen, 48 h
Settings: 10 µM unless noted
Compounds without any hit were thinned out: in the full panel of roughly 83,000, 20% have a hit. Active and inactive are the calls of the source. The calls were made as follows: active = growth percent below 10; inactive = the rest.
Returns: one label drawn from active, inactive

Dear colleague, could you share the recorded outcome for `Cc1ccc2c(n1)C(=O)C(Br)=C(CC(C)C)C2=O` when you have a moment?
inactive

Dear colleague, could you share the recorded outcome for `Clc1ccc(/C=N\N=C\c2ccc(Cl)c(Cl)c2)cc1Cl` when you have a moment?
inactive

Dear colleague, could you share the recorded outcome for `COc1ccc2cc1Oc1ccc(cc1)C[C@H]1c3c(cc4c(c3Oc3cc5c(cc3OC)CCN(C)[C@@H]5C2)OCO4)CCN1C` when you have a moment?
inactive

Dear colleague, could you share the recorded outcome for `O=C(c1ccccc1)c1ccc(C2CCCCC2)cc1` when you have a moment?
inactive

Dear colleague, could you share the recorded outcome for `CCCCCC(/C=N\NC(=S)N/N=C/C(=C/c1ccccc1)CCCCC)=C\c1ccccc1` when you have a moment?
inactive

Dear colleague, could you share the recorded outcome for `Nc1ncc(-c2ccc3ncnc(Nc4cccc(Cl)c4)c3c2)cn1` when you have a moment?
inactive

Dear colleague, could you share the recorded outcome for `CCOC(=O)c1cc2c(n1C)-c1nc(NC(C)=O)sc1CCC2` when you have a moment?
inactive

Dear colleague, could you share the recorded outcome for `CCCn1cc2c(=O)nc3sc(Cc4ccccc4)c(C)n3c2n1` when you have a moment?
inactive

Dear colleague, could you share the recorded outcome for `Cn1cc(-c2csc(-c3c[nH]c4ccc(Br)cc34)n2)c2ccnc(Cl)c21` when you have a moment?
inactive

Dear colleague, could you share the recorded outcome for `N#CSc1c[nH]c2cccc(/C=C/C(=O)/C=C(/C=C/c3cccc4[nH]cc(SC#N)c34)OB(F)F)c12` when you have a moment?
active

Dear colleague, could you share the recorded outcome for `O=C(CSc1nnc(-c2cnccn2)n1-c1ccccc1)c1ccc(Cl)cc1` when you have a moment?
inactive

Dear colleague, could you share the recorded outcome for `COc1ccc(Nc2ncc(Br)c(NCCCNC(=O)c3cccs3)n2)cc1` when you have a moment?
inactive

Dear colleague, could you share the recorded outcome for `CC(=O)Oc1ccc(C)cc1C` when you have a moment?
inactive

Dear colleague, could you share the recorded outcome for `CCOC(=O)c1cc2c(n1Cc1cc(OC)c(OC)c(OC)c1)-c1nc(N)sc1CCC2` when you have a moment?
inactive

Dear colleague, could you share the recorded outcome for `O=C1NC(=C(Cl)Cl)/C(=N\S(=O)(=O)NCc2ccccc2)N1` when you have a moment?
inactive

Dear colleague, could you share the recorded outcome for CCN1C(=O)N(CC)C2C1NN=c1s/c(=C\c3ccccc3F)c(=O)n12 (stereo unspecified) when you have a moment?
inactive

Dear colleague, could you share the recorded outcome for `CCOc1ccc(NC(=O)CSc2oc(-c3ccccc3)nc2S(=O)(=O)c2ccc(C)cc2)cc1` when you have a moment?
inactive

Dear colleague, could you share the recorded outcome for `CCN(CC)c1ccc(\C=N/N=C(N)/C(N)=N\N=C/c2ccc(N(CC)CC)cc2)cc1` when you have a moment?
inactive

Dear colleague, could you share the recorded outcome for CC(=O)N1N=C(c2ccc(Nc3nc(Nc4ccccc4)nc(Nc4ccccc4)n3)cc2)CC1c1cccc([N+](=O)[O-])c1 (stereo unspecified) when you have a moment?
inactive

Dear colleague, could you share the recorded outcome for `Cc1cc(=O)oc2cc(OCc3nn4c(Nc5nc6ccccc6s5)c(-c5ccccc5)nc4s3)ccc12` when you have a moment?
inactive

Dear colleague, could you share the recorded outcome for `COc1ccc(NC2=C(I)C(=O)c3ncccc3C2=O)cc1` when you have a moment?
active
